IC50 values, listed per item
- System: K562 human myeloid leukemia cell line
- RUN_DESCRIPTION: MTT antiproliferative assay, K562
- Assay type: cell-based

COc1cccc2c1C(=O)c1c(O)c3c(c(O)c1C2=O)C[C@@](O)(C(=O)CO)C[C@@H]3O[C@H]1C[C@H](N)[C@H](O)[C@H](C)O1 [Adriamycin, reference compound] = 4.89 µM
CON=C1C(=O)N(CCC(=O)OC2O[C@@H]3O[C@@]4(C)CC[C@H]5[C@H](C)CC[C@@H]([C@H]2C)[C@@]35OO4)c2ccc(F)cc21 (some centres unmarked) = > 100 µM

GET /values?readout=IC50&item= C[C@@H]1CC[C@H]2[C@@H](C)C(OC(=O)CCN3C(=O)C(=NOCc4ccccc4)c4cc(F)ccc43)O[C@@H]3O[C@@]4(C)CC[C@@H]1[C@]32OO4 (some centres unmarked) > 100 µM

Also CON=C1C(=O)N(CCC(=O)OC2O[C@@H]3O[C@@]4(C)CC[C@H]5[C@H](C)CC[C@@H]([C@H]2C)[C@@]35OO4)c2ccc(OC)cc21 (some centres unmarked) ? > 100 µM

Also "C[C@@H]1CC[C@H]2[C@@H](C)C(=O)O[C@@H]3O[C@@]4(C)CC[C@@H]1[C@]32OO4" ? > 100 µM

Also CCON=C1C(=O)N(CCC(=O)OC2O[C@@H]3O[C@@]4(C)CC[C@H]5[C@H](C)CC[C@@H]([C@H]2C)[C@@]35OO4)c2ccc(OC)cc21 (some centres unmarked) ? > 100 µM

Also CON=C1C(=O)N(CCCC(=O)OC2O[C@@H]3O[C@@]4(C)CC[C@H]5[C@H](C)CC[C@@H]([C@H]2C)[C@@]35OO4)c2ccc(OC)cc21 (some centres unmarked) ? > 100 µM

---

- Test system: K562/ADR human myeloid leukemia cell line
- RUN_DESCRIPTION: MTT antiproliferative assay, K562/ADR
- Type: cell-based
MEASUREMENT_NAME: IC50

Solved entries:
CON=C1C(=O)N(CCCC(=O)OC2O[C@@H]3O[C@@]4(C)CC[C@H]5[C@H](C)CC[C@@H]([C@H]2C)[C@@]35OO4)c2ccc(OC)cc21 (stereo partly drawn) = > 100 µM
CON=C1C(=O)N(CCC(=O)OC2O[C@@H]3O[C@@]4(C)CC[C@H]5[C@H](C)CC[C@@H]([C@H]2C)[C@@]35OO4)c2ccc(F)cc21 (stereo partly drawn) = 16.2 µM
CCON=C1C(=O)N(CCC(=O)OC2O[C@@H]3O[C@@]4(C)CC[C@H]5[C@H](C)CC[C@@H]([C@H]2C)[C@@]35OO4)c2ccc(OC)cc21 (stereo partly drawn) = > 100 µM
CON=C1C(=O)N(CCC(=O)OC2O[C@@H]3O[C@@]4(C)CC[C@H]5[C@H](C)CC[C@@H]([C@H]2C)[C@@]35OO4)c2ccc(OC)cc21 (stereo partly drawn) = > 100 µM

GET /values?readout=IC50&item= CON=C1C(=O)N(CC(=O)OC2O[C@@H]3O[C@@]4(C)CC[C@H]5[C@H](C)CC[C@@H]([C@H]2C)[C@@]35OO4)c2ccccc21 (stereo partly drawn) 49.8 µM

Also C[C@@H]1CC[C@H]2[C@@H](C)C(OC(=O)CN3C(=O)C(=NOCc4ccccc4)c4ccccc43)O[C@@H]3O[C@@]4(C)CC[C@@H]1[C@]32OO4 (stereo partly drawn) ? > 100 µM

---

IC50 values, listed per item
- Test system: K562 human myeloid leukemia cell line
- RUN_DESCRIPTION: MTT antiproliferative assay, K562
- Assay type: cell-based
All answers are understood in µM, so give the number only.

Solved entries:
CON=C1C(=O)N(CC(=O)OC2O[C@@H]3O[C@@]4(C)CC[C@H]5[C@H](C)CC[C@@H]([C@H]2C)[C@@]35OO4)c2ccccc21 (stereo partly shown) [hybrid 7a] = 33.6
C[C@@H]1CC[C@H]2[C@@H](C)C(OC(=O)CCCN3C(=O)C(=NOCc4ccccc4)c4cc(F)ccc43)O[C@@H]3O[C@@]4(C)CC[C@@H]1[C@]32OO4 (stereo partly shown) [hybrid 7r] = 6.32

--- query ---
GET /values?readout=IC50&item= CCON=C1C(=O)N(CCC(=O)OC2O[C@@H]3O[C@@]4(C)CC[C@H]5[C@H](C)CC[C@@H]([C@H]2C)[C@@]35OO4)c2ccc(F)cc21 (stereo partly shown) [hybrid 7i] 15.9
